Ref: patent US8912169B2

Quick reference for pIC50 among some compounds
molecular target: OXA-1 (Escherichia coli, UniProt P13661); test: β-lactamase enzyme inhibition, OXA-1; conditions: substrate Nitrocefin 100 μM, 486 nm; read-out: Class D OXA-1 IC50
pIC50: −log10 of the molar value.

{"Structure smiles string": "N[C@@H](C(=O)N[C@H]1Cc2cccc(C(=O)O)c2OB1O)C1CCCCC1", "pIC50": "6.00 to 7.00"}
{"Structure smiles string": "O=C(C[C@H]1CC[C@H](N(Cc2ncc[nH]2)Cc2ncc[nH]2)CC1)N[C@H]1Cc2cccc(C(=O)O)c2OB1O", "pIC50": "> 7.00"}
{"Structure smiles string": "N=C(N)N1CCC(CN[C@H]2CC[C@H](CC(=O)N[C@H]3Cc4cccc(C(=O)O)c4OB3O)CC2)CC1", "pIC50": "> 7.00"}
{"Structure smiles string": "O=C(C[C@H]1CC[C@H](NCCNc2ccccn2)CC1)N[C@H]1Cc2cccc(C(=O)O)c2OB1O", "pIC50": "> 7.00"}

====

biological target: VIM-2 (Escherichia coli); assay: β-lactamase enzyme inhibition, VIM-2; conditions: substrate Nitrocefin 100 μM, 486 nm; read-out: Class B VIM-2 IC50
pIC50: −log10 of the molar value.
Recorded metric: pIC50

{"Compound": "N[C@H]1CC[C@H](CC(=O)N[C@H]2Cc3cccc(C(=O)O)c3OB2O)CC1 [Example 6]", "Val": "6.00 to 7.00"}
{"Compound": "CN1CCN([C@H]2CC[C@H](CC(=O)N[C@H]3Cc4cccc(C(=O)O)c4OB3O)CC2)C1=N [Example 52]", "Val": "4.00 to 5.00"}
{"Compound": "N=C(N)NCCN[C@H]1CC[C@H](CC(=O)N[C@H]2Cc3cccc(C(=O)O)c3OB2O)CC1 [Example 25]", "Val": "> 7.00"}
{"Compound": "O=C(C[C@H]1CC[C@H](NCc2ccccn2)CC1)N[C@H]1Cc2cccc(C(=O)O)c2OB1O [Example 32]", "Val": "6.00 to 7.00"}

====

biological target: OXA-1 (Escherichia coli); assay: β-lactamase enzyme inhibition, OXA-1; conditions: substrate Nitrocefin 100 μM, 486 nm; read-out: Class D OXA-1 IC50

{"Molecule": "NCCN[C@H]1CC[C@@H](CC(=O)N[C@H]2Cc3cccc(C(=O)O)c3OB2O)CC1", "IC50": "< 100 nM"}
{"Molecule": "O=C(CC1CCC(NC2CNC2)CC1)N[C@H]1Cc2cccc(C(=O)O)c2OB1O (stereo partly shown)", "IC50": "< 100 nM"}
{"Molecule": "N[C@H]1CC[C@H](NCC(=O)N[C@H]2Cc3cccc(C(=O)O)c3OB2O)CC1", "IC50": "100 to 1000 nM"}
{"Molecule": "NCCNC(=O)NC1CC(CC(=O)N[C@H]2Cc3cccc(C(=O)O)c3OB2O)C1 (stereo partly shown)", "IC50": "< 100 nM"}
{"Molecule": "CNCCN[C@H]1CC[C@H](CC(=O)N[C@H]2Cc3cccc(C(=O)O)c3OB2O)CC1", "IC50": "< 100 nM"}
{"Molecule": "CN(CCN)[C@H]1CC[C@H](CC(=O)N[C@H]2Cc3cccc(C(=O)O)c3OB2O)CC1", "IC50": "< 100 nM"}
{"Molecule": "N[C@H]1CC[C@H](CC(=O)N[C@H]2Cc3cccc(C(=O)O)c3OB2O)CC1", "IC50": "< 100 nM"}
{"Molecule": "N[C@H]1CC[C@@H](CC(=O)N[C@H]2Cc3cccc(C(=O)O)c3OB2O)CC1", "IC50": "100 to 1000 nM"}
{"Molecule": "N=C(N)NCCN[C@H]1CC[C@H](CC(=O)N[C@H]2Cc3cccc(C(=O)O)c3OB2O)CC1", "IC50": "< 100 nM"}
{"Molecule": "O=C(C[C@H]1CC[C@H](N2C=NCC2)CC1)N[C@H]1Cc2cccc(C(=O)O)c2OB1O", "IC50": "< 100 nM"}
{"Molecule": "O=C(C[C@H]1CC[C@@H](N2CCNCC2)CC1)N[C@H]1Cc2cccc(C(=O)O)c2OB1O", "IC50": "100 to 1000 nM"}
{"Molecule": "O=C(CC1CCCCC1)N[C@H]1Cc2cccc(C(=O)O)c2OB1O", "IC50": "< 100 nM"}
{"Molecule": "O=C(C[C@H]1CC[C@H](NCc2cccnc2)CC1)N[C@H]1Cc2cccc(C(=O)O)c2OB1O", "IC50": "< 100 nM"}
{"Molecule": "O=C(C[C@H]1CC[C@H](NCCNC2CCCC2)CC1)N[C@H]1Cc2cccc(C(=O)O)c2OB1O", "IC50": "< 100 nM"}
{"Molecule": "NCCNC1CCC(O)(CC(=O)N[C@H]2Cc3cccc(C(=O)O)c3OB2O)CC1 (stereo partly shown)", "IC50": "< 100 nM"}
{"Molecule": "NCCN[C@H]1CC[C@H](CC(=O)N[C@@H]2Cc3cccc(C(=O)O)c3OB2O)CC1", "IC50": "100 to 1000 nM"}
